- system.name: T1, CD33M, full length human CD33 protein expressed on transfected cells (human, UniProt P20138 18-303)
- T1 construct: also called full length CD33
- assay.comment: flow cytometry on cells transfected with CD33M; apparent Kd, one-site fit
Cut-off 3 nM on Kd: below means true, at or above means false.

Examples from the recorded data:
binder	group.label
F02 sdAb (F02 VHH domain fused to human IgG1 xELL Fc region) (Fc fusion, VHH-Fc; no linker stated; also called F02-IgG1) QVQLVQSGGGLVQAGGSLRLSCAASGSISSYNVVGWYRQLSGNERGGRTMVAQINAYGDTNYANAVVGRFTISRDDAKNTVYLHMSNLKPEDTGVYYCNGQRMLENYTYRDQSWGQGTQVTVDKTHTCPPCPAPGGPSVFLFPPKPKDTLMISRTPEVTCVVVDVSHEDPEVKFNWYVDGVEVHNAKTKPREEQYNSTYRVVSVLTVLHQDWLNGKEYKCKVSNKALPAPIEKTISKAKGQPREPQVYTLPPSRDELTKNQVSLTCLVKGFYPSDIAVEWESNGQPENNYKTTPPVLDSDGSFFLYSKLTVDKSRWQQGNVFSCSVMHEALHNHYTQKSLSLSPGK	false
hzB07v7 sdAb (hzB07v7 VHH domain fused to human IgG1 xELL Fc region) (Fc fusion, VHH-Fc; no linker stated; also called hzB07v7-IgG1) EVQLVESGGGEVQPGGSLRLSCAASGRTISDYVVGWFRQAPGKERAFVAAISRYGTTYYAASVQGRFTISRDNPRNTVYLQVDSLRAEDTAVYYCAALQNDVRNNHSPTSYDYWGQGTLVTVDKTHTCPPCPAPGGPSVFLFPPKPKDTLMISRTPEVTCVVVDVSHEDPEVKFNWYVDGVEVHNAKTKPREEQYNSTYRVVSVLTVLHQDWLNGKEYKCKVSNKALPAPIEKTISKAKGQPREPQVYTLPPSRDELTKNQVSLTCLVKGFYPSDIAVEWESNGQPENNYKTTPPVLDSDGSFFLYSKLTVDKSRWQQGNVFSCSVMHEALHNHYTQKSLSLSPGK	true
1G3 sdAb (1G3 VHH domain fused to human IgG1 xELL Fc region) (Fc fusion, VHH-Fc; no linker stated) EVQLQQSGGGEVQPGGSLRLSCEASGFTFSSYAMGWFRQAPGKGREWVAAITTSGDTTYYAESVKGRFTISRDNAKNTVYLQMSSLRAEDTAVYYCAAHRGGGVIDYWGQGTQVTVDKTHTCPPCPAPGGPSVFLFPPKPKDTLMISRTPEVTCVVVDVSHEDPEVKFNWYVDGVEVHNAKTKPREEQYNSTYRVVSVLTVLHQDWLNGKEYKCKVSNKALPAPIEKTISKAKGQPREPQVYTLPPSRDELTKNQVSLTCLVKGFYPSDIAVEWESNGQPENNYKTTPPVLDSDGSFFLYSKLTVDKSRWQQGNVFSCSVMHEALHNHYTQKSLSLSPGK	true
hzG11v2 sdAb (hzG11v2 VHH domain fused to human IgG1 xELL Fc region) (Fc fusion, VHH-Fc; no linker stated; also called hzG11v2-IgG1) EVQLVESGGGEVQPGGSLRLSCAASGSTLNIDHIGWYRQAPGKERELVGVISSGAGPNYAESVKGRFTISRDNAKNTVYLQMSSLRAEDTAVYYCNAWIDYGSGLPQNYWGQGTLVTVDKTHTCPPCPAPGGPSVFLFPPKPKDTLMISRTPEVTCVVVDVSHEDPEVKFNWYVDGVEVHNAKTKPREEQYNSTYRVVSVLTVLHQDWLNGKEYKCKVSNKALPAPIEKTISKAKGQPREPQVYTLPPSRDELTKNQVSLTCLVKGFYPSDIAVEWESNGQPENNYKTTPPVLDSDGSFFLYSKLTVDKSRWQQGNVFSCSVMHEALHNHYTQKSLSLSPGK	true
G11 sdAb (G11 VHH domain fused to human IgG1 xELL Fc region) (Fc fusion, VHH-Fc; no linker stated) EVQLVQSGGGSVQVGGSLRLSCAASGSTLNIDHIGWYRQAPGKERELVGVISSGAGPNYADSVKGRFTISRDNAKNTVYLQMNSLKPEDTAVYNCNAWIDYGSGLPQNYWGQGTQVTVDKTHTCPPCPAPGGPSVFLFPPKPKDTLMISRTPEVTCVVVDVSHEDPEVKFNWYVDGVEVHNAKTKPREEQYNSTYRVVSVLTVLHQDWLNGKEYKCKVSNKALPAPIEKTISKAKGQPREPQVYTLPPSRDELTKNQVSLTCLVKGFYPSDIAVEWESNGQPENNYKTTPPVLDSDGSFFLYSKLTVDKSRWQQGNVFSCSVMHEALHNHYTQKSLSLSPGK	true
hz1C7v1 sdAb (hz1C7v1 VHH domain fused to human IgG1 xELL Fc region) (Fc fusion, VHH-Fc; no linker stated; also called hz1C7v1-IgG1) EVQLVESGGGEVQPGGSLRLSCAASGRTFSGYIMGWFRQAPGKERELVARISGNNLSTEYAESVKGRFTISRDNAKNTLYLQMSSLRAEDTAVYYCAAEYDYSSGDFVYWGQGTLVTVDKTHTCPPCPAPGGPSVFLFPPKPKDTLMISRTPEVTCVVVDVSHEDPEVKFNWYVDGVEVHNAKTKPREEQYNSTYRVVSVLTVLHQDWLNGKEYKCKVSNKALPAPIEKTISKAKGQPREPQVYTLPPSRDELTKNQVSLTCLVKGFYPSDIAVEWESNGQPENNYKTTPPVLDSDGSFFLYSKLTVDKSRWQQGNVFSCSVMHEALHNHYTQKSLSLSPGK	false
hz1H9v2 sdAb (hz1H9v2 VHH domain fused to human IgG1 xELL Fc region) (Fc fusion, VHH-Fc; no linker stated; also called hz1H9v2-IgG1) EVQLVESGGGEVQPGGSLRLSCAASGSIFSISIMGWYRQAPGKERELVASTTSSGTTNYVESVKGRFTISRDNAKNTLYLQMSSLRAEDTAVYYCHAYIATTTDRGYRGYWGQGTLVTVDKTHTCPPCPAPGGPSVFLFPPKPKDTLMISRTPEVTCVVVDVSHEDPEVKFNWYVDGVEVHNAKTKPREEQYNSTYRVVSVLTVLHQDWLNGKEYKCKVSNKALPAPIEKTISKAKGQPREPQVYTLPPSRDELTKNQVSLTCLVKGFYPSDIAVEWESNGQPENNYKTTPPVLDSDGSFFLYSKLTVDKSRWQQGNVFSCSVMHEALHNHYTQKSLSLSPGK	true

Okay, next one:
Query :: Kd under 3 nM? Item: hz1G3v3 sdAb (hz1G3v3 VHH domain fused to human IgG1 xELL Fc region) (Fc fusion, VHH-Fc; no linker stated; also called hz1G3v3-IgG1) EVQLVESGGGEVQPGGSLRLSCAASGFTFSSYAMGWFRQAPGKGREWVAAITTSGDTTYYAESVKGRFTISRDNAKNTVYLQMSSLRAEDTAVYYCAAHRGGGVIDYWGQGTLVTVDKTHTCPPCPAPGGPSVFLFPPKPKDTLMISRTPEVTCVVVDVSHEDPEVKFNWYVDGVEVHNAKTKPREEQYNSTYRVVSVLTVLHQDWLNGKEYKCKVSNKALPAPIEKTISKAKGQPREPQVYTLPPSRDELTKNQVSLTCLVKGFYPSDIAVEWESNGQPENNYKTTPPVLDSDGSFFLYSKLTVDKSRWQQGNVFSCSVMHEALHNHYTQKSLSLSPGK
Result :: true
